PROPERTY MEASURED: melting point

Examples with answers:
CCN(Cc1cc(Br)ccc1NCc1ccccc1)c1ccc(C(=O)O)nn1; 176 °C
CCOC(=O)c1c2ccc(CC(=O)NOC(=O)NCCCCN)ccc-2c(C(=O)OCC)c1N; 150 °C
COc1ccc2nc(C)cc(NNC(=O)Nc3ccc(N(CCCl)CCCl)cc3)c2c1; 184 to 186 °C
CC(C)(C)OC(=O)NC1COCCCC=CC2CC2(C(=O)NS(=O)(=O)C2CC2)NC(=O)C2CC(OC(=O)c3cccc(Oc4ccccc4)c3)CN2C1=O (stereo not given); 123 to 125 °C

In: Which value of melting point has been reported for `N#Cc1c(N2CCNCC2)c2cc(F)ccc2n(Cc2ccccc2)c1=O` in the records?
Out: 162 °C

In: Which value of melting point has been reported for `CCCCOc1cc(C(=O)O)cc(N)c1C(=O)c1ccc(C)cc1` in the records?
Out: 170 to 172 °C

In: Which value of melting point has been reported for `CCNC(=O)ON=C1N=C(C)C(C)(C)S1` in the records?
Out: 84 to 86 °C

In: Which value of melting point has been reported for `COc1ccccc1NC(=O)c1ccncc1` in the records?
Out: 79 to 80 °C

In: Which value of melting point has been reported for CCCCCCC(N)(c1ccccc1)C(C)(C)O (stereo not given) in the records?
Out: 64.5 to 65.5 °C

In: Which value of melting point has been reported for `C[Si](C)(C)c1ccc2c(c1)Cc1cc([Si](C)(C)C)ccc1-2` in the records?
Out: 117 to 118 °C

In: Which value of melting point has been reported for `CCOc1ccc2nc(CN3CCN(c4ccc(Cl)cc4Cl)CC3)cn2c1` in the records?
Out: 171 to 172 °C

In: Which value of melting point has been reported for `Cc1cc2c(c(C)c1NC(=O)OC(C)(C)C)CC(C)(C)O2` in the records?
Out: 121 to 123 °C
